molecular target: Retinoic acid receptor RXR-gamma (Mus musculus); assay: Effective concentration against retinoid receptor isoform (RXR gamma) expressed in CV-1 cells
OUTCOME_MEASURE: EC50 (nM)

C=C(c1ccc(C(=O)O)cc1)c1cc2c(cc1F)C(C)(C)CCC2(C)C : 383
C=C(c1ccc(C(=O)O)cc1)c1cc2c(cc1OC)C(C)(C)CCC2(C)C : 230
C=C(c1ccc(C(=O)O)cc1)c1cc2c(cc1C(C)C)C(C)(C)CCC2(C)C : 227

P = CC(C)c1cc2c(cc1C(=O)c1ccc(C(=O)O)cc1)C(C)(C)CCC2(C)C
Q = CC1(C)CCC(C)(C)c2cc(C(=O)c3ccc(C(=O)O)cc3)c(Cl)cc21
R = COc1cc2c(cc1C(=O)c1ccc(C(=O)O)cc1)C(C)(C)CCC2(C)C
S = C=C(c1ccc(C(=O)O)cc1)c1cc2c(cc1Cl)C(C)(C)CCC2(C)C
Inquiry: Sort these molecules on EC50 so the largest reading comes first. Give your ranking as a list of the labels in the requested order.
Reply text: R, P, Q, S
(R: 2190 nM, P: 357 nM, Q: 225 nM, S: 36 nM)

a = C=C(c1ccc(C(=O)O)cc1)c1ccc2c(c1)C(C)(C)CCC2(C)C
b = CC1(C)CCC(C)(C)c2cc(C(=O)c3ccc(C(=O)O)cc3)c(Br)cc21
Inquiry: Looking only at measured EC50, which entry is lower, a or b ? // output: label of the selected item
Reply text: b

P = CCc1cc2c(cc1C(=O)c1ccc(C(=O)O)cc1)C(C)(C)CCC2(C)C
Q = C=C(c1ccc(C(=O)O)cc1)c1cc2c(cc1Br)C(C)(C)CCC2(C)C
R = CC1(C)CCC(C)(C)c2cc(C(=O)c3ccc(C(=O)O)cc3)c(F)cc21
S = C=C(c1ccc(C(=O)O)cc1)c1cc2c(cc1CC)C(C)(C)CCC2(C)C
Inquiry: Order by EC50, ascending. Give your ranking as a list of the labels in the requested order.
Reply text: Q, S, P, R
(Q: 43 nM, S: 136 nM, P: 384 nM, R: 2250 nM)

###

target: Retinoic acid receptor RXR-gamma (Mus musculus, UniProt P28705)
Sequence (P28705 whole entry, canonical isoform): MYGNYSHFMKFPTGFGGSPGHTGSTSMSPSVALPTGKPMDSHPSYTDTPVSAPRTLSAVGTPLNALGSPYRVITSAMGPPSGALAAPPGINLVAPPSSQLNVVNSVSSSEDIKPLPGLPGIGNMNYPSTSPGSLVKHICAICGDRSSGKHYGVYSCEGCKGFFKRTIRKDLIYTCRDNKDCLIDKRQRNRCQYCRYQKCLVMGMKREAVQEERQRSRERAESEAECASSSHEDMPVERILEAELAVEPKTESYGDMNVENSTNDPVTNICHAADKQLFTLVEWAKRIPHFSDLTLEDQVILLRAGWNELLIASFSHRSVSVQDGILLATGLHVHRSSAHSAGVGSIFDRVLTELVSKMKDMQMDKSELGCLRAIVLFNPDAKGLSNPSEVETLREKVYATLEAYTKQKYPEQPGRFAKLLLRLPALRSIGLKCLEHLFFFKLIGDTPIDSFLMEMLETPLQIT
OUTCOME_MEASURE: Kd (nM)

C=C(c1ccc(C(=O)O)cc1)c1cc2c(cc1O)C(C)(C)CCC2(C)C : 812

A = CCCc1cc2c(cc1C(=O)c1ccc(C(=O)O)cc1)C(C)(C)CCC2(C)C
B = CCc1cc2c(cc1C(=O)c1ccc(C(=O)O)cc1)C(C)(C)CCC2(C)C
C = C=C(c1ccc(C(=O)O)cc1)c1cc2c(cc1OC)C(C)(C)CCC2(C)C
Inquiry: Sort these compounds on Kd so the largest reading comes first. Give your ranking as a list of the labels in the requested order.
Reply text: A, B, C
(A: 704 nM, B: 424 nM, C: 113 nM)

###

biological target: Retinoic acid receptor RXR-beta (Mus musculus); experiment: Effective concentration against retinoid receptor isoform (RXR beta) expressed in CV-1 cells
Sequence (P28704 whole entry, canonical isoform): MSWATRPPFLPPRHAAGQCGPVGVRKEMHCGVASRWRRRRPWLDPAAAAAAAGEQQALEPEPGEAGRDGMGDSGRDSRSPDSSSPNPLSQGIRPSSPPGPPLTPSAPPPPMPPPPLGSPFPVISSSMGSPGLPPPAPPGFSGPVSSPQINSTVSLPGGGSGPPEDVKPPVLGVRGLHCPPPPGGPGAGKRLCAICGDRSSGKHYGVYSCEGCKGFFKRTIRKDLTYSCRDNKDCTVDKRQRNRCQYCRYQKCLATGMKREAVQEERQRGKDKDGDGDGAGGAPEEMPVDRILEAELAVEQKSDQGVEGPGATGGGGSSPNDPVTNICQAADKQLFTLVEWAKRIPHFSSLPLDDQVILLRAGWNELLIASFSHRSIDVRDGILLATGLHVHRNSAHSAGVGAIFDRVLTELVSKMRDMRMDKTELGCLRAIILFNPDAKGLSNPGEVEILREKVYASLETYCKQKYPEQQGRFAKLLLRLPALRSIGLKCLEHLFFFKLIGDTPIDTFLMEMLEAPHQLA
pEC50: −log10 of the molar value.
OUTCOME_MEASURE: pEC50

Some entries whose results are on file:
CCc1cc2c(cc1C(=O)c1ccc(C(=O)O)cc1)C(C)(C)CCC2(C)C : 6.09
C=C(c1ccc(C(=O)O)cc1)c1cc2c(cc1O)C(C)(C)CCC2(C)C : 6.69
CC1(C)CCC(C)(C)c2cc(C(=O)c3ccc(C(=O)O)cc3)c(Cl)cc21 : 6.58

a = C=C(c1ccc(C(=O)O)cc1)c1cc2c(cc1F)C(C)(C)CCC2(C)C
b = C=C(c1ccc(C(=O)O)cc1)c1cc2c(cc1Br)C(C)(C)CCC2(C)C
c = C=C(c1ccc(C(=O)O)cc1)c1cc2c(cc1Cl)C(C)(C)CCC2(C)C
d = CC1(C)CCC(C)(C)c2cc(C(=O)c3ccc(C(=O)O)cc3)c(F)cc21
Inquiry: Order by pEC50, ascending. Give your ranking as a list of the labels in the requested order.
Reply text: d, a, b, c
(d: 5.70, a: 6.72, b: 7.23, c: 7.48)
